Cited source: BindingDB's records for doi:10.1016/j.bmcl.2014.06.076

So I've got a bunch of compounds here, and I need their IC50 values.
target: L-lactate dehydrogenase A chain (Homo sapiens, UniProt P00338); test: Inhibition of human recombinant carboxy-terminal His-tagged LDHA by UV endpoint assay

Give the reported IC50 for N#Cc1ccccc1SC1=C(O)CC(c2c(Cl)cccc2C(F)(F)F)CC1=O (stereo not drawn) (system: L-lactate dehydrogenase A chain (Homo sapiens, UniProt P00338)).
> 100 µM

What measured IC50 is associated with Cc1cccc(C)c1C1CC(=O)C(Sc2ccccc2Cl)=C(O)C1 (stereo not drawn) on L-lactate dehydrogenase A chain (Homo sapiens, UniProt P00338)?
> 100 µM

Hello, I am looking for reported IC50 with L-lactate dehydrogenase A chain (Homo sapiens, UniProt P00338) for N#Cc1ccccc1SC1=C(O)CC(c2ccccc2Cl)CC1=O (stereo not drawn) . Could you help?
> 100 µM

I'm curious: which IC50 was measured for N#Cc1ccccc1SC1=C(O)CC(c2c(Cl)cccc2Cl)CC1=O (stereo not drawn) tested on L-lactate dehydrogenase A chain (Homo sapiens, UniProt P00338)?
> 100 µM

Which IC50 is reported with L-lactate dehydrogenase A chain (Homo sapiens, UniProt P00338) for this entry: COc1ccc(C2CC(=O)C(Sc3ccccc3Cl)=C(O)C2)cc1 (stereo not drawn) ?
> 100 µM

Report IC50 for O=C1CC(c2c(F)cccc2F)CC(O)=C1Sc1ccccc1Cl (stereo not drawn) tested on L-lactate dehydrogenase A chain (Homo sapiens, UniProt P00338).
> 100 µM

So what IC50 did O=C1CC(c2c(Cl)ccc(Br)c2Cl)CC(O)=C1Sc1ccccc1Cl (stereo not drawn) get with L-lactate dehydrogenase A chain (Homo sapiens, UniProt P00338)?
> 100 µM

IC50 of O=C1CC(c2ccccc2)CC(O)=C1Sc1ncc[nH]1 (stereo not drawn) on L-lactate dehydrogenase A chain (Homo sapiens, UniProt P00338)?
0.87 µM

Reported IC50 for L-lactate dehydrogenase A chain (Homo sapiens, UniProt P00338), given O=C1CC(c2cccc(Cl)c2)CC(O)=C1Sc1ccccc1Cl (stereo not drawn) ?
> 100 µM

Param readout = IC50; param system = L-lactate dehydrogenase A chain (Homo sapiens, UniProt P00338); param query = N#Cc1ccccc1SC1=C(O)CC(c2ccc(Cl)cc2)CC1=O (stereo not drawn) ; response: value
> 100 µM

State its IC50 on L-lactate dehydrogenase A chain (Homo sapiens, UniProt P00338): Cc1cc(C)c(SC2=C(O)CC(c3ccccc3)CC2=O)nc1C#N (stereo not drawn)
5.6 µM

Find the measured IC50: item N#Cc1ccccc1SC1=C(O)CC(c2c(Br)cccc2Br)CC1=O (stereo not drawn) , target or system L-lactate dehydrogenase A chain (Homo sapiens, UniProt P00338).
> 100 µM

Form field: IC50 recorded for CSc1nnc(SC2=C(O)CC(c3ccccc3)CC2=O)s1 (stereo not drawn) with L-lactate dehydrogenase A chain (Homo sapiens, UniProt P00338) (enter value)
7.4 µM
